Value source: the Immune Epitope Database (IEDB)

Molecular target: HLA-A*26:03
Assay: IEDB peptide-MHC binding, purified MHC/direct/fluorescence; filed as Kd, often an IC50 or EC50 that approximates it; bounds were set here for any values at or beyond the usual limits of such assays
Conditions: source organism: Francisella tularensis subsp. tularensis FSC033
value-kind: Kd

1) REIGDISYL    ≥ 20 µM

====

Each item that follows carries a reported pKd.
Biological target: HLA-B*15:01
Assay: IEDB peptide-MHC binding, purified MHC/direct/fluorescence; filed as Kd, often an IC50 or EC50 that approximates it; bounds were set here for any values at or beyond the usual limits of such assays
Details: source organism: Influenza A virus (A/Puerto Rico/8/34/Mount Sinai(H1N1))
pKd: −log10 of the molar value.
value-kind: pKd

1) DLLENLQAY    5.57
2) GMQIRGFVY    6.59
